Measured values drawn from patent US20250170132A1 for this set.

- protocol_details: Approximate solubility estimation in 24 solvents
- Assay type: physicochemical
- experimental_conditions: organic solvent or mixture, thermodynamic from solid; MTBE, RT

{"compound": "CCN(C(=O)c1cc(F)ccc1Oc1cncnc1N1CC2(CCN(C[C@H]3CC[C@H](NS(=O)(=O)CC)CC3)CC2)C1)C(C)C [Compound A monocitrate monohydrate]", "solubility": "< 2800 µg/mL"}

* * *

- protocol_details: Pharmacokinetics in patients with relapsed or refractory acute leukemia
- Format: in vivo, human
- experimental_conditions: human, plasma, oral; 276 mg twice daily without strong CYP3A4 inhibitors; steady-state; geometric mean; read-out: AUC0-12 h
- Source text: The pharmacokinetics of Compound A were characterized in patients with relapsed or refractory acute leukemia following single and multiple oral administration of Compound A with or without strong CYP3A4 inhibitors. Steady-state pharmacokinetic parameters are presented as geometric mean [geometric coefficient of variation (% CV)] unless otherwise specified.

{"compound_string": "CCN(C(=O)c1cc(F)ccc1Oc1cncnc1N1CC2(CCN(C[C@H]3CC[C@H](NS(=O)(=O)CC)CC3)CC2)C1)C(C)C", "units_text": "ng·h/mL", "AUC(0-t)": 10200}
